tested_on: σ2R (Rattus norvegicus)
Sequence (Q5U3Y7 1-176): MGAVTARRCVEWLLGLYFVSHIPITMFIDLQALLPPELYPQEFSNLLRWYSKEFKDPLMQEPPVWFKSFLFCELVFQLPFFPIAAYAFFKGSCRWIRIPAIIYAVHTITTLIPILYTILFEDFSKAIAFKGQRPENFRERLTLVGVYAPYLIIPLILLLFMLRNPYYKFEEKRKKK
procedure_text: σ2R radioligand binding ([3H]DTG, liver membranes)
particulars: exptl Ki σ2, Table 3, given as mean ± spread
pKi: −log10 of the molar value.
value_type: pKi

compound_smiles: CC(C)(C)c1ccc(OCCCN2CCN(c3ccncc3)CC2)cc1
pKi: 6.89

compound_smiles: CCC(=O)c1ccc(OCCCCCCN2CCN(c3ccncc3)CC2)cc1
pKi: 6.96

(P) CCc1ccc(OCCCN2CCN(c3ccncc3)CC2)cc1
(Q) CC(C)(C)c1ccc(OCCCCCCN2CCN(c3ccncc3)CC2)cc1
(R) CC(=O)c1ccc(OCCCCN2CCN(c3ccncc3)CC2)cc1
Write the entries in order, lowest recorded pKi first. Labels, requested order.
R, Q, P

---

Tested on: σ1R
procedure_text: σ1R radioligand binding ([3H](+)-pentazocine, brain cortex membranes)
particulars: σ2R Ki / σ1R Ki (selectivity factor)
value_type: σ2/σ1 ratio

Here's what some known entries look like.
compound_smiles: CCc1ccc(OCCCN2CCN(c3ccncc3)CC2)cc1
σ2/σ1 ratio: 0.1
--
compound_smiles: CC(C)(C)c1ccc(OCCCN2CCN(c3ccncc3)CC2)cc1
σ2/σ1 ratio: 1.2
--
compound_smiles: CC(C)(C)c1ccc(OCCCCN2CCN(c3ccncc3)CC2)cc1
σ2/σ1 ratio: 3.4

(A) O=C(c1ccc(Cl)cc1)c1ccc(OCCCN2CCN(c3ccncc3)CC2)cc1
(B) CCC(C)(C)c1ccc(OCCCCN2CCN(c3ccncc3)CC2)cc1
(C) CC(=O)c1ccc(OCCCCCCN2CCN(c3ccncc3)CC2)cc1
Write the entries in order, lowest recorded σ2/σ1 ratio first. Labels, requested order.
A, B, C
(A: 0.1, B: 0.4, C: 4.0)

---

tested_on: σ1R (Cavia porcellus, UniProt Q60492)
Sequence (Q60492 whole entry): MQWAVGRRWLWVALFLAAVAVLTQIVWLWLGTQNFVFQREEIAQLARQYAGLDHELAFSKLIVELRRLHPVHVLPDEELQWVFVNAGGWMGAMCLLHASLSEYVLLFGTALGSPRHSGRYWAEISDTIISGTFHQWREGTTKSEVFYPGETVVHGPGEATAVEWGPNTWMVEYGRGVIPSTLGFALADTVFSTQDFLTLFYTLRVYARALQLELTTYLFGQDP
procedure_text: σ1R radioligand binding ([3H](+)-pentazocine, brain cortex membranes)
particulars: exptl Ki σ1, Table 3, given as mean ± spread
pKi: −log10 of the molar value.
value_type: pKi

Here's what some known entries look like.
compound_smiles: O=C(c1ccc(F)cc1)c1ccc(OCCCN2CCN(c3ccncc3)CC2)cc1
value_type: pKi
reported: 5.88
//
compound_smiles: CC(=O)c1ccc(OCCCCCCCCN2CCN(c3ccncc3)CC2)cc1
value_type: pKi
reported: 6.39
//
compound_smiles: c1ccc(-c2ccc(OCCCN3CCN(c4ccncc4)CC3)cc2)cc1
value_type: pKi
reported: 6.20
//
compound_smiles: O=C(c1ccccc1)c1ccc(OCCCN2CCCCC2)cc1
value_type: pKi
reported: 7.83
//
compound_smiles: CC(C)(C)c1ccc(OCCCCCCN2CCN(c3ccncc3)CC2)cc1
value_type: pKi
reported: 6.59
//
compound_smiles: CC(C)(C)c1ccc(OCCCN2CCN(c3ccncc3)CC2)cc1
value_type: pKi
reported: 6.95
//
compound_smiles: O=C(c1ccccc1)c1ccc(OCCCN2CCN(c3ccncc3)CC2)cc1
value_type: pKi
reported: 6.14
//
compound_smiles: c1ccc(-c2ccc(OCCCN3CCCCC3)cc2)cc1
value_type: pKi
reported: 8.36
//
compound_smiles: CC(=O)c1ccc(OCCCCCCN2CCN(c3ccncc3)CC2)cc1
value_type: pKi
reported: 7.42
//
compound_smiles: CC(C)(C)c1ccc(OCCCCN2CCN(c3ccncc3)CC2)cc1
value_type: pKi
reported: 7.29

(1) CCc1ccc(OCCCN2CCN(c3ccncc3)CC2)cc1
(2) CC(=O)c1ccc(OCCCN2CCN(c3ccncc3)CC2)cc1
Between the entries labelled 1 and 2 , which has a larger pKi value on record? Which one? Tell me its label.
1

From: paper PMC8739840
